- test.details: Cytotoxicity against human ES2 cells after 48 hrs by MTT assay
- conditions.used: ES-2, 48 h
recorded.endpoint: IC50

INSERT INTO measurements (compound, result) VALUES
  ('O=C(CN1C(=O)C2(OCCO2)c2cc(Cl)ccc21)NO', '167 µM'),
  ('O=C(CN1C(=O)C2(OCCCO2)c2cc(F)ccc21)NO', '457 µM'),
  ('O=C(CN1C(=O)C2(OCCCCO2)c2cc(Cl)ccc21)NO', '212 µM'),
  ('O=C(CN1C(=O)C2(OCCCCO2)c2cc(Br)ccc21)NO', '409 µM'),
  ('CC(C)C[C@H](NC(=O)[C@@H](O)[C@H](N)Cc1ccccc1)C(=O)O [UBENIMEX]', '632 µM'),
  ('O=C(CN1C(=O)C2(OCCCO2)c2cc(Cl)ccc21)NO', '233 µM'),
  ('O=C(CN1C(=O)C2(OCCO2)c2cc(F)ccc21)NO', '142 µM'),
  ('O=C(CN1C(=O)C2(OCCCCO2)c2cc(F)ccc21)NO', '553 µM'),
  ('O=C(CN1C(=O)C2(OCCCO2)c2cc(Br)ccc21)NO', '137 µM');

====

IC50 values by entry
- study.target: Histone deacetylase 1/3/5/8 (Homo sapiens, UniProt Q13547+O15379+Q9UQL6+Q9BY41)
- test.details: Inhibition of HDAC1/3/5/8 in human HeLa cell extract using Boc-Lys-(acetyl)-AMC as substrate incubated for 5 mins prior to substrate addition measured after 30 mins by fluorometric analysis
- Assay type: protein assay
recorded.endpoint: IC50

INSERT INTO assay_data (mol, study_target, result) VALUES
  ('O=C(CN1C(=O)C2(OCCCCO2)c2cc(F)ccc21)NO', 'Histone deacetylase 1/3/5/8 (Homo sapiens, UniProt Q13547+O15379+Q9UQL6+Q9BY41)', '> 100 µM'),
  ('O=C(CN1C(=O)C2(OCCCCO2)c2cc(Cl)ccc21)NO', 'Histone deacetylase 1/3/5/8 (Homo sapiens, UniProt Q13547+O15379+Q9UQL6+Q9BY41)', '> 100 µM'),
  ('O=C(CNC(=O)CN1C(=O)C2(OCCO2)c2cc(Br)ccc21)NO', 'Histone deacetylase 1/3/5/8 (Homo sapiens, UniProt Q13547+O15379+Q9UQL6+Q9BY41)', '0.33 µM'),
  ('O=C(CN1C(=O)C2(OCCO2)c2cc(Cl)ccc21)NO', 'Histone deacetylase 1/3/5/8 (Homo sapiens, UniProt Q13547+O15379+Q9UQL6+Q9BY41)', '> 100 µM'),
  ('O=C(CN1C(=O)C2(OCCCO2)c2cc(F)ccc21)NO', 'Histone deacetylase 1/3/5/8 (Homo sapiens, UniProt Q13547+O15379+Q9UQL6+Q9BY41)', '> 100 µM'),
  ('O=C(CN1C(=O)C2(OCCCCO2)c2cc(Br)ccc21)NO', 'Histone deacetylase 1/3/5/8 (Homo sapiens, UniProt Q13547+O15379+Q9UQL6+Q9BY41)', '> 100 µM'),
  ('O=C(CN1C(=O)C2(OCCO2)c2cc(Br)ccc21)NO', 'Histone deacetylase 1/3/5/8 (Homo sapiens, UniProt Q13547+O15379+Q9UQL6+Q9BY41)', '> 100 µM'),
  ('O=C(CN1C(=O)C2(OCCCO2)c2cc(Br)ccc21)NO', 'Histone deacetylase 1/3/5/8 (Homo sapiens, UniProt Q13547+O15379+Q9UQL6+Q9BY41)', '> 100 µM'),
  ('O=C(CN1C(=O)C2(OCCCO2)c2cc(Cl)ccc21)NO', 'Histone deacetylase 1/3/5/8 (Homo sapiens, UniProt Q13547+O15379+Q9UQL6+Q9BY41)', '> 100 µM'),
  ('O=C(CN1C(=O)C2(OCCO2)c2cc(F)ccc21)NO', 'Histone deacetylase 1/3/5/8 (Homo sapiens, UniProt Q13547+O15379+Q9UQL6+Q9BY41)', '> 100 µM');

====

- study.target: Aminopeptidase N (Sus scrofa, UniProt P15145)
- Sequence (P15145 whole entry): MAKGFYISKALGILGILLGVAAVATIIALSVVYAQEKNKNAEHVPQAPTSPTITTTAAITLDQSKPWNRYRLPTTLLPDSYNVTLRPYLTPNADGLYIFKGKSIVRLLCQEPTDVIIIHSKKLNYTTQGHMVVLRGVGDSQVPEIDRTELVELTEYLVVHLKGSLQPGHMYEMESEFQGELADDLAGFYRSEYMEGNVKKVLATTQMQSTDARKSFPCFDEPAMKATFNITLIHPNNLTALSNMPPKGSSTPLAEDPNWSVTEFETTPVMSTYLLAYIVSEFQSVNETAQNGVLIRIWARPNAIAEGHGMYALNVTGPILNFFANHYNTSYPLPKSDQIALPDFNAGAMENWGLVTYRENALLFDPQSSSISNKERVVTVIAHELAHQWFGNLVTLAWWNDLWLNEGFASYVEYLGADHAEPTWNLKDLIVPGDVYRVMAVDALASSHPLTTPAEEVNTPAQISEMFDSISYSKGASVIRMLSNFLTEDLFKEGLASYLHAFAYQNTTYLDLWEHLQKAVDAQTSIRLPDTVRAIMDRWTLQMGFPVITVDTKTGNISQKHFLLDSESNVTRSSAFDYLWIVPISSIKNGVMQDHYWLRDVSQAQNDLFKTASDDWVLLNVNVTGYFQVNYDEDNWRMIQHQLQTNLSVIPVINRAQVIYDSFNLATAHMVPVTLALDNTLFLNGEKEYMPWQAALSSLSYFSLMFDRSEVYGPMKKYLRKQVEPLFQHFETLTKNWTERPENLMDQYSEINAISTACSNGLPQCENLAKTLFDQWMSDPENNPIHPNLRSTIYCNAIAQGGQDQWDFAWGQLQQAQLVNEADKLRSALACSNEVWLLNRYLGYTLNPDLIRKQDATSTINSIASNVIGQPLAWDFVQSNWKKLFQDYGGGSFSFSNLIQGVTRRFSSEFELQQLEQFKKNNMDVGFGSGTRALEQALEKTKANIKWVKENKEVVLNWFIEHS
recorded.endpoint: IC50 (µM)

INSERT INTO assay_data (compound, recorded_endpoint, sign, result) VALUES
  ('O=C(CN1C(=O)C2(OCCO2)c2cc(Br)ccc21)NC(C(=O)NO)c1ccccc1 (stereo not drawn)', 'IC50', '>', 1000),
  ('O=C(CN1C(=O)C2(OCCO2)c2cc(Br)ccc21)N[C@@H](Cc1ccccc1)C(=O)NO', 'IC50', '=', 26.4),
  ('Cc1ccc2c(c1)C1(OCCO1)C(=O)N2CC(=O)NO', 'IC50', '=', 2.63),
  ('O=C(CN1C(=O)C2(OCCCO2)c2cc(F)ccc21)NO', 'IC50', '=', 6.71),
  ('O=C(CN1C(=O)C2(OCCO2)c2cc(F)ccc21)NO', 'IC50', '=', 5.3),
  ('O=C(CNC(=O)CN1C(=O)C2(OCCO2)c2cc(Br)ccc21)NO', 'IC50', '=', 6.6),
  ('O=C(CN1C(=O)C2(OCCCO2)c2cc(Br)ccc21)NO', 'IC50', '=', 3.4),
  ('O=C(CN1C(=O)C2(OCCCO2)c2ccccc21)NO', 'IC50', '=', 266),
  ('O=C(CN1C(=O)C2(OCCCCO2)c2cc(Cl)ccc21)NO', 'IC50', '=', 0.074),
  ('O=C(CN1C(=O)C2(OCCCO2)c2cc(Cl)ccc21)NO', 'IC50', '=', 1.3),
  ('O=C(CN1C(=O)C2(OCCCCO2)c2cc(Br)ccc21)NO', 'IC50', '=', 0.086),
  ('O=C(CN1C(=O)C2(OCCCCO2)c2cc(F)ccc21)NO', 'IC50', '=', 4.06),
  ('Cc1ccc2c(c1)C1(OCCCO1)C(=O)N2CC(=O)NO', 'IC50', '=', 3.33);
